test system: Nucleic Acid; test: Binding affinity to human telomeric DNA G-quadruplex assessed as change in melting temperature at 1 uM by FRET assay; assay type: nucleic-acid assay
# ΔTm annotations
Write down the numeric answer in °C and omit the unit.

smiles-data: C[N+](C)(C)CCC(=O)NCc1cccc2cc3cccc(CNC(=O)CC[N+](C)(C)C)c3nc12
ΔTm (°C): 2.1
--
smiles-data: O=C(CCCN1CCCCC1)NCc1cccc2cc3cccc(CNC(=O)CCCN4CCCCC4)c3nc12
ΔTm (°C): 1.3
--
smiles-data: O=C(CCN1CCCCC1)NCc1cccc2cc3cccc(CNC(=O)CCN4CCCCC4)c3nc12
ΔTm (°C): 2.2
--
smiles-data: O=C(CCCN1CCCC1)NCc1cccc2cc3cccc(CNC(=O)CCCN4CCCC4)c3nc12
ΔTm (°C): 3

Reported ΔTm for CN(C)c1ccc(Nc2c3ccc(NC(=O)CCN4CCCC4)cc3nc3cc(NC(=O)CCN4CCCC4)ccc23)cc1 : what is it?
29.1
